Hey, just so you know, these numbers are from patent US20060247271A1.

- system: human recombinant collagenase (Homo sapiens, UniProt P03956)
- Sequence (P03956 100-469): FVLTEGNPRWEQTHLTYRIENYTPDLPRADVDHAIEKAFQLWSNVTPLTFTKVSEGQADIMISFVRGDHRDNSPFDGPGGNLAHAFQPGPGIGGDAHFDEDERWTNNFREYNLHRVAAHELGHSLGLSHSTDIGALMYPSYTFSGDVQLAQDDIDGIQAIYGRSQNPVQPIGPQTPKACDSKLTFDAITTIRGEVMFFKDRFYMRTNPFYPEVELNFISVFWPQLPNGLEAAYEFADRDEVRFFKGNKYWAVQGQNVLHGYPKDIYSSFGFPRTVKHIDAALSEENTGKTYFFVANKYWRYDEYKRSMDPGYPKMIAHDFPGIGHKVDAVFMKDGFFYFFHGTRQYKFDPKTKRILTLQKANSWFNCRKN
- test-method-notes: Collagenase inhibition assay
- measurement-context: 37° C., 18 h, acetylated 3H type 1 bovine collagen
assay-endpoint: IC50

*Q* Could you tell me which IC50 is on file for O=C(NO)C(CS(=O)(=O)Cc1cnc2ccccc2c1)c1ccccc1 (stereo not shown) ?
*A* > 10 µM
